These measurements were taken from ChEMBL document CHEMBL1138896.

Biological target: GABA-A receptor; alpha-1/beta-3/gamma-2 (Homo sapiens, UniProt P14867+P18507+P28472)
Sequence (P14867 whole entry): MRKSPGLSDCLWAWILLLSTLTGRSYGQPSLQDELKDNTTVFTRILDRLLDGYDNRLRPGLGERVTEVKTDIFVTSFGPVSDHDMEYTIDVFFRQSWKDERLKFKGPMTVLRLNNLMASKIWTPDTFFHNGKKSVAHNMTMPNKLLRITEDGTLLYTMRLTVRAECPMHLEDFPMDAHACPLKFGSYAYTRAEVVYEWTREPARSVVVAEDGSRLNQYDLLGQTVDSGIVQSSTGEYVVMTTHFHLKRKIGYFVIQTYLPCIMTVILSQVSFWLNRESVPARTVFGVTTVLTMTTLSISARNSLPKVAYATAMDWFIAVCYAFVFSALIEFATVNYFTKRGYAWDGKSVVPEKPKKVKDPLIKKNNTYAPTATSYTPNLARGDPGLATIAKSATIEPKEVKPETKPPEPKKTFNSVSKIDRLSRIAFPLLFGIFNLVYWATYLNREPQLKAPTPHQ
Sequence (P18507 whole entry): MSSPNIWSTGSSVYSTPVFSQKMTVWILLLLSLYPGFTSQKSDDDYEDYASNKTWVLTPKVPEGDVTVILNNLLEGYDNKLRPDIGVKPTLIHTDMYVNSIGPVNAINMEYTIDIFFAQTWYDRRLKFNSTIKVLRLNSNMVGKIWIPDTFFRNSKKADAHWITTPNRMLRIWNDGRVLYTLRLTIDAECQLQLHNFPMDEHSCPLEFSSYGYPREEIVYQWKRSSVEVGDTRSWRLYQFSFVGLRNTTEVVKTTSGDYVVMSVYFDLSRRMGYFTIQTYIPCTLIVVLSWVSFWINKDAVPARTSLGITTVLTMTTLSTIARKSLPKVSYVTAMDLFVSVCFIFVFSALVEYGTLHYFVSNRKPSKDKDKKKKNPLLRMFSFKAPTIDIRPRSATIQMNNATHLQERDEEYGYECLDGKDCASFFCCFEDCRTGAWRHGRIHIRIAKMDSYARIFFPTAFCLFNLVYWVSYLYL
Sequence (P28472 whole entry): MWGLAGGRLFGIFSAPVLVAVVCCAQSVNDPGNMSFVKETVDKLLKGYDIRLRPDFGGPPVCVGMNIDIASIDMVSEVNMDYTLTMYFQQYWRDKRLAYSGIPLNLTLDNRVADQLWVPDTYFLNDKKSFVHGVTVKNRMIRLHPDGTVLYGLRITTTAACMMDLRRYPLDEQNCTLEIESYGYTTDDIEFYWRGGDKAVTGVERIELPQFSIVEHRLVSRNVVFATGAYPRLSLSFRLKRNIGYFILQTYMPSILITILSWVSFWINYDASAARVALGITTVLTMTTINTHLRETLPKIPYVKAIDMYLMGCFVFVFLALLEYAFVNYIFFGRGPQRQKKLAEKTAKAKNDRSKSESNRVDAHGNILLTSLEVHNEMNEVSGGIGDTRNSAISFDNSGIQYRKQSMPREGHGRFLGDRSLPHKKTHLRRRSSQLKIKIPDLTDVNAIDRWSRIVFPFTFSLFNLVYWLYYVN
Experiment: Inhibition of [3H]Ro15-1788 binding to human recombinant GABA-Aalpha1 plus beta-3-gamma-2 receptor expressed in L(tk-) cells
endpoint: Ki (nM)
Number only, in nM; omit the unit.

Lab note: measured Ki of Cn1ncnc1COc1nn2c(-c3ccccc3F)nncc2c1-c1ccccc1 was 0.39
